Consider the following molecules; for each one, report its IC50 at 48 h.
# protocol.text: GSK_TCAKS: pIC50 HepG2 human cell line viability assay using luminiscence. […] Seeding density was checked to ensure that new mono-layers were not more than 50% confluent at the time of harvesting. Cell suspension was added to 500 mL of the same medium at a final density of 1.2 * 10^5 cells/mL. This cell suspension was dispensed (25 uL, 3000 cells per well) into 384-well clear-bottom plates using a Multidrop Combi dispenser. Prior to addition of the cell suspension, the screening compounds (250 nL) were pre-dispensed into the plates with an Echo liquid handler. Plates were incubated for 48 h at 37C, 5% CO2. After incubation, plates equilibrated at room temperature for 30 min before proceeding to develop the luminescent signal. The signal developer, CellTiter-Glo Reagent, was allowed to equilibrate at room temperature for 30 min and added to the plates (25uL per well) using a Multidrop Combi dispenser. Plates were left for 10 min at room temperature for stabilization and then read using a ViewLux.
# Assay type: toxicity, cell-based
Please state the figure in µM; there is no need to write the unit.

Exercise: IC50 at 48 h for O=C(CN(Cc1ccccn1)Cc1ccccn1)NCc1ccc(-c2csnn2)cc1 ?
Solution: 25.1

Exercise: IC50 at 48 h for COc1cccc(CN(C)Cc2nc(N)c3c(C)c(C)sc3n2)c1 ?
Solution: 39.8

Exercise: IC50 at 48 h for Cc1ccc(Nc2nc(C3CCCN3Cc3cc[nH]n3)cs2)nc1 (stereo unspecified) ?
Solution: 31.6

---

# Tested on: Trypanosoma cruzi
# protocol.text: GSK_TCAKS: pIC50 Trypanosoma cruzi viability assay using beta-GAL activity. This assay was run at single shot at 5uM compound concentration per well. The biological reagents consisted of NIH-3T3 host cells and trypomastigotes parasitic cells; both cell types were set to a 3.3 * 10^5 cells/mL dilution in assay DMEM by means of a CASY cell counter device using a 60um capillary. 6 uL of the mixture were dispensed per well (about 1 * 10^3 host-cells and 1 * 10^3 parasites) with a Multidrop Combi dispenser. […] In all wells, the percentage of DMSO never exceeded 0.5%. Plates incubated for four days at 37C, 5% CO2. The substrate used for the assay fluorescence intensity (FLINT) readout was resorufin-beta-D-galactopiranoside (Sigma-Aldrich) at 5uM per well. It was diluted in PBS supplemented with the soft detergent Igepal (Fluka).
# Assay type: functional, organism-based, Mus musculus
# recorded.conditions: Tulahuen, NIH3T3
pIC50: −log10 of the molar value.
I would appreciate it if you labelled entries 1 (yes) when pIC50 is 6 or higher, otherwise 0 (no).

Exercise: Determine whether measured pIC50 meets or exceeds 6 for CC(C)(C)C(=O)NCCc1csc(-c2ccc(F)cc2)n1
Solution: 0 (no)

Exercise: Determine whether measured pIC50 meets or exceeds 6 for Cc1cc(NC(=O)C2CC2)ccc1OC1CCN(Cc2ccco2)CC1
Solution: 0 (no)

Exercise: Determine whether measured pIC50 meets or exceeds 6 for CNc1c(C(N)=O)c(-c2ccc3scnc3c2)nn1CC(F)(F)F
Solution: 1 (yes)

Exercise: Determine whether measured pIC50 meets or exceeds 6 for O=C(Nc1nc(-c2ccc(F)cc2)cs1)c1ccc([N+](=O)[O-])s1
Solution: 1 (yes)

Exercise: Determine whether measured pIC50 meets or exceeds 6 for Cn1nc(C(=O)N2CCc3ccccc32)c2c1CCS(=O)(=O)C2
Solution: 0 (no)

Exercise: Determine whether measured pIC50 meets or exceeds 6 for COc1cccc(-c2cc(C(F)(F)F)nc(-n3ccc([N+](=O)[O-])n3)n2)c1
Solution: 1 (yes)

Exercise: Determine whether measured pIC50 meets or exceeds 6 for CC(=O)Nc1ccc(-c2csc(NC(=O)c3ccc([N+](=O)[O-])s3)n2)cc1
Solution: 1 (yes)

Exercise: Determine whether measured pIC50 meets or exceeds 6 for CCc1cccc(CC)c1-n1c(SCC(=O)N2CC(=O)Nc3ccccc32)nnc1-c1cccnc1
Solution: 0 (no)

Exercise: Determine whether measured pIC50 meets or exceeds 6 for Cc1ccc(C)c(-n2nnnc2Sc2nc([N+](=O)[O-])nn2C)c1
Solution: 1 (yes)
